- target.or.test.system: T1, sIL-6R (soluble IL-6 receptor; SBH Sciences) (human, UniProt P08887 20-365)
- T1 construct: also called human IL-6R
- T1 sequence: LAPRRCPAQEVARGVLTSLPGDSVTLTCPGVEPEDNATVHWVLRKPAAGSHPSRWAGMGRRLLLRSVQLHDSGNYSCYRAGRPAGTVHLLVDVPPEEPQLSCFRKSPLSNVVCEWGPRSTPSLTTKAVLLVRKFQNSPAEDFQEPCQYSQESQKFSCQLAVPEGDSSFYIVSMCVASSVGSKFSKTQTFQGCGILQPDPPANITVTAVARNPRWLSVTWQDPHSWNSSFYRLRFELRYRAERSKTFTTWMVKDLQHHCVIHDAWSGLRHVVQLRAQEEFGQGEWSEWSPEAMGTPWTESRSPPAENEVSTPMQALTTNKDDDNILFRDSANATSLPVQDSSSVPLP
- assay: SPR (BIAcore 3000), antibody on chip, sIL-6R analyte, 25 C
property.measured: Kd (nM)
Express it in nM; write the number only.

I am curious: what Kd value has been reported for Tocilizumab (antibody, human IgG1, kappa, V domains shown, also called 25; 25(control)) VH: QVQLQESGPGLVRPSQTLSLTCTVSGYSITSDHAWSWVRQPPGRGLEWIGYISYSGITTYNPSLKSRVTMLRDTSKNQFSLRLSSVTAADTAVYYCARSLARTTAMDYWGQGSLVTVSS VL: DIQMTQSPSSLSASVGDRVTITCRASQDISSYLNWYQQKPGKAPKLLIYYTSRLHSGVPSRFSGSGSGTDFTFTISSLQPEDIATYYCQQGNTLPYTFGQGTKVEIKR ? 2.8
